These measurements were taken from patent US20230374147A1.

pEC50 overview
Biological target: T1, recombinant his-tagged human TACI (Sinobiological cat #11937-H08H) (human, UniProt O14836 1-165)
T1 construct: Bought protein; also called Human TACI-His; huTACI; not shown: His tag
T1 sequence: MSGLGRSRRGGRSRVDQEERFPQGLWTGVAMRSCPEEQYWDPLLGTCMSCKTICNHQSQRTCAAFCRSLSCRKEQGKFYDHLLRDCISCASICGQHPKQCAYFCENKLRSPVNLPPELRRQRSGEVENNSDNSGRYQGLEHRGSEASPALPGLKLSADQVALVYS
Assay: ELISA, coated Human TACI-His
Schema: pEC50 number; meaning minus log10 of the concentration expressed in molar units.

BINDER	RECORDED_NUMBER
1C8-6A3 hIgG1 (antibody, V domains shown, also called [94]; hu1C8) VH: QVQLVQSGAEVKKPGASVKVSCKASGYTFTNYVMHWVKQKPGQGLEWMGYILPYNDGTKYAQKFQGKVTMTSDKSTSTVYMELSSLTSEDTAVYYCARYDYEGSFDYWGQGTLVTVSS VL: DIQMTQSPSSLSASVGDRVTITCRASQDISNYLNWYQQKPGKAPKLLMCYTSRLHSGVPSRFSGSGSGTDFTLTISSLEQEDFATYYCQQGNTFPPTFGGGTKVEIKR	8.88
1C8-403 hIgG1 (antibody, V domains shown, also called [91]; hu1C8-403) VH: QVQLVQSGAEVKKPGASVKVSCKASGYTFTNYVMHWVKQKPGQGLEWMGYILPYNDGTKYAQKFQGKVTMTSDKSTSTVYMELSSLTSEDTAVYYCARYDWEGSFDYWGQGTLVTVSS VL: DIQMTQSPSSLSASVGDRVTITCRASSDISNYLNWYQQKPGKAPKLLMCYTSRLHSGVPSRFSGSGSGTDFTLTISSLEQEDFATYYCQQGNTFPPTFGGGTKVEIKR	10.29
1C8-610 hIgG1 (antibody, V domains shown, also called [93]; hu1C8-610) VH: QVQLVQSGAEVKKPGASVKVSCKASGYTFTNYVMFWVKQKPGQGLEWMGYITPYNDGTKYAQKFQGKVTMTSDKSTSTVYMELSSLTSEDTAVYYCARYDYEGSFDYWGQGTLVTVSS VL: DIQMTQSPSSLSASVGDRVTITCRASQDISNYLNWYQQKPGKAPKLLMRYTSRFHSGVPSRFSGSGSGTDFTLTISSLEQEDFATYYCQQGNTFPPTSGGGTKVEIKR	11.00

// next entry
Input line: Indicate its recorded pEC50; the binder in question is 1C8-507 hIgG1 (antibody, V domains shown, also called [92]; hu1C8-507) VH: QVQLVQSGAEVKKPGASVKVSCKASGYTFRNYVMHWVKQKPGQGLEWMGWILPYNDGTKYAQKFQGKVTMTSDKSTSTVYMELSSLTSEDTAVYYCARYDYEGSFDYWGQGTLVTVSS VL: DIQMTQSPSSLSASVGDRVTITCRASQDISNYLNWYQQKPGKAPKLLMRYTSLLHSGVPSRFSGSGSGTDFTLTISSLEQEDFATYYCQQGNTFPPTFGGGTKVEIKR
Output line: 10.68
